// note: pKi values for 5-hydroxytryptamine receptor 6 (Homo sapiens) were reported in different studies
Answers are plain numbers, as −log10 of the molar value.

Below, 5 molecules whose answers are already recorded.
Molecule	Parameter	Test Value
COc1ccc(NC(=O)N2CCN(c3ccccc3Cl)CC2)cc1N1CCN(C)CC1	pKi	6.33
O=c1c(-c2ccccc2F)c2n(c(=O)n1CCCCN1CCCC(c3c[nH]c4ccccc34)C1)CCCC2 (stereo not given)	pKi	5.99
CCn1nc(S(=O)(=O)c2cccc3ccccc23)c2cc(N3CCN(C)CC3)ccc21	pKi	8.77
CN1CCC(N(C)C(=O)C2CN(S(=O)(=O)c3cccc4nsnc34)c3ccccc32)CC1 (racemic)	pKi	6.90
CCN/C(=N\S(=O)(=O)c1cccc(Cl)c1F)N1CC(CC)C=N1 (stereo not given)	pKi	8.57

For each of the molecules below, note its pKi.
1. O=S(=O)(c1cncc2ccccc12)N1CCC(CCN2CCN(c3cccc(Cl)c3)CC2)CC1
2. COc1cccc(S(=O)(=O)c2ccc3c4c(oc3c2)C(C)(C)NCC4)c1
3. CC(C)Cn1nc2ccc(N3CC[C@@H](N)C3)cc2c1S(=O)(=O)c1cccc2ccccc12
4. O=C1CCc2cc(C(O)CCCN3CCC(c4noc5cc(F)ccc45)CC3)cc3c2N1CC3 (stereo not given)
5. O=S(=O)(c1cccc2ncccc12)N1CCC(CCN2CCN(c3cccc(C(F)(F)F)c3)CC2)CC1
6. O=S(=O)(c1cccc(Cl)c1Cl)n1cc(C2=CCCNC2)c2ccccc21
7. CN(C)CCN(Cc1ccc(-c2ccc(CNCCc3ccccc3)cc2)cc1)C(=O)CCC1CCCC1
8. Cc1c(S(=O)(=O)c2ccccc2)c2cccnc2n1CCN

Ans.
1: 5.93; 2: 7.76; 3: 7.12; 4: 8.20; 5: 6.19; 6: 7.70; 7: 5.40; 8: 8.38

* * *

// note: pKi values for 5-hydroxytryptamine receptor 6 (Homo sapiens, UniProt P50406) were reported in different studies
Numbers only, as −log10 of the molar value.

Below, 4 molecules whose answers are already recorded.
Molecule	pKi
COc1ccc(S(=O)(=O)Nc2ccc(Cl)cc2C(F)(F)F)cc1N1CCNCC1	7.60
O=S(=O)(c1cn(C2CCCNC2)c2ncccc12)c1c(Cl)nc2sccn12 (stereo not given)	9.15
O=S(=O)(c1ccc2cc[nH]c2c1)N1CCC[C@@H]1CCN1CCC(Oc2ccc(Cl)cc2)CC1	6.07
COc1ccc(N(S(=O)(=O)c2sc3ccc(Cl)cc3c2C)S(=O)(=O)c2cccc3c(N(C)C)cccc23)cc1N1CCNCC1	7.57

Let us move to another entry and its pKi.
Qu. Entry CCNC(=N[S+]([O-])c1sc2ccc(Cl)cc2c1C)N1CC(CC)C=N1 (stereo not given) needs its pKi filled in; supply it.
Ans. 8.07

* * *

// note: pKi values for UniProt:P50406 were reported in different studies
Give bare numbers, as −log10 of the molar value.

Compound	Parameter	Test Value
O=S(=O)(NC1CCN(CCOc2ccccc2-c2ccccc2)CC1)c1ccc(F)c(F)c1	pKi	6.70
CN(C)c1ccc(C2(C)C(=O)Nc3cc(Cl)cc(Cl)c3C2=O)cc1 (stereo not given)	pKi	6.46

For each of the compounds below, note its pKi.
1. Cc1cccc(S(=O)(=O)c2n[nH]c3ccc(NC4CCNCC4)cc23)c1
2. O=c1c(-c2ccccc2Cl)c2n(c(=O)n1CCCCN1CCCC(c3c[nH]c4ccccc34)C1)CCCC2 (stereo not given)
3. O=C1c2ccccc2S(=O)(=O)N1CCCCCCN1CCN(c2ccc(Cl)cc2)CC1
4. O=C(Nc1cccc2c(S(=O)(=O)c3cccc4ccccc34)n[nH]c12)C1CCCNC1 (stereo not given)
5. COc1ccc(-c2cc(N3CCN(C)CC3)nc3c2ccn3S(=O)(=O)CC(C)C)cc1
6. COc1ccc2c(c1)c(-c1c(C)nc(N)n1CC(F)F)cn2S(=O)(=O)c1ccccc1
7. CN(C)CC1CCCc2c1c1ccccc1n2Cc1ccccc1 (stereo not given)
8. O=S(=O)(c1cccc2ncccc12)N1CCC[C@@H]1CCN1CCN(c2nsc3ccccc23)CC1

Ans.
9.10
5.99
7.14
8.01
8.70
6.80
7.19
7.42

For each of the compounds below, note its pKi.
1. Cc1ccc(S(=O)(=O)n2cc3c4c(cccc42)[C@H](O)[C@@H](N(C)C)C3)cc1
2. CC(Oc1cc(Cl)ccc1F)c1nc(N)nc(N2CCN(C)CC2)n1 (stereo not given)
3. NC(=O)c1ccccc1OCCCN1CCC(c2cn(S(=O)(=O)c3ccccc3)c3ccccc23)CC1
4. CCC(Oc1cc(F)ccc1OC)c1nc(N)nc(N2CCN(C)CC2)n1 (stereo not given)
5. CN1CCN(Cc2ccc(OCCCCN3CCC(c4noc5cc(F)ccc45)CC3)cc2)CC1
6. O=S(=O)(c1cccc2ccccc12)c1n[nH]c2c(NC3CCNCC3)cccc12

Ans.
1. 8.10
2. 7.24
3. 7.24
4. 7.14
5. 6.91
6. 7.52

Qu. Entry COc1ccc(NC(=O)N2CCN(c3ccc(Cl)cc3)CC2)cc1N1CCN(C)CC1 needs its pKi filled in; supply it.
Ans. 5.29

* * *

// note: Ki values for 5-hydroxytryptamine receptor 6 (Homo sapiens) were reported in different studies
Numbers only, in nM.

Mol	Test Value
O=C(c1ccc(F)cc1)C1CCN(CCc2ccccc2I)CC1	138
CN1CCN(c2nc(N)nc(CSc3ccccc3)n2)CC1	26

Qu. Under 5-hydroxytryptamine receptor 6 (Homo sapiens), report Ki for O=S(=O)(c1cccc2cnccc12)N1CCC[C@@H]1CCN1CCN(c2cccc3sccc23)CC1
Ans. 9

* * *

// note: pKi values for 5-hydroxytryptamine receptor 6 (Homo sapiens, UniProt P50406) were reported in different studies
One number for each entry, as −log10 of the molar value.

Below, 4 compounds whose answers are already recorded.
Compound	Target	Parameter	Test Value
COc1cc(C(C)C)c(Oc2cnc(N)nc2N)cc1I	5-hydroxytryptamine receptor 6 (Homo sapiens, UniProt P50406)	pKi	6.00
CC1(c2ccc(I)cc2)C(=O)Nc2cc(Cl)cc(Cl)c2C1=O (stereo not given)	5-hydroxytryptamine receptor 6 (Homo sapiens, UniProt P50406)	pKi	6.02
O=C1c2cccc3cccc(c23)N1CCCCCCN1CCN(c2cccc(Cl)c2Cl)CC1	5-hydroxytryptamine receptor 6 (Homo sapiens, UniProt P50406)	pKi	6.04
O=S(=O)(c1cccc2cnccc12)N1CCC[C@H]1CCN1CCN(c2nsc3ccccc23)CC1	5-hydroxytryptamine receptor 6 (Homo sapiens, UniProt P50406)	pKi	6.44

For each of the compounds below, note its pKi.
1. O=S(=O)(c1ccc2c(Cl)cccc2c1)n1c2c(c3ccccc31)CCNCC2
2. CN(C)[C@H]1c2cc3c(ccn3S(=O)(=O)c3ccccc3)cc2[C@@H]1CCO (relative stereo)
3. COc1ccc(NC(=O)N2CCN(c3ccccc3OC)CC2)cc1N1CCN(C)CC1
4. O=C1CC(c2c[nH]c3ccccc23)C(=O)N1CCN1CCC(c2c[nH]c3ccc(F)cc23)CC1 (racemic)
5. Nc1ccc(S(=O)(=O)c2cc(Br)nc(Br)c2)cc1
6. O=S(=O)(c1ccc(Cl)cc1)c1cn(C2CCNC2)c2ncccc12 (stereo not given)
7. COc1ccc(Cc2nc(N)nc(N3CCN(C)CC3)n2)cc1

Ans.
1: 7.62; 2: 6.50; 3: 5.62; 4: 5.94; 5: 7.27; 6: 8.26; 7: 6.36

* * *

// note: Ki values for 5-hydroxytryptamine receptor 6 (Homo sapiens, UniProt P50406) were reported in different studies

Molecule	Parameter	Test Value
Cc1ccc(N2CCN(Cc3nc4ccccc4[nH]3)CC2)cc1C	Ki	> 2000 nM
O=S(=O)(c1cccc2ccccc12)c1cn(C2CCNC2)c2ccccc12 (centres undefined)	Ki	23.3 nM
O=C1c2ccccc2S(=O)(=O)N1CCCCCCN1CCN(c2cccc3cccnc23)CC1	Ki	1720 nM
CCCCC(Oc1cc(Cl)cc(Cl)c1)c1nc(Nc2ccccc2)nc(N2CCN(C)CC2)n1 (centres undefined)	Ki	21 nM
O=C1Nc2ccccc2C12CCN(CCN1CCN(c3ccc(F)cc3)CC1)C2 (centres undefined)	Ki	4740 nM
CC(=O)Nc1ccc(OCCCN2CCC(c3noc4cc(F)ccc34)CC2)cc1	Ki	12.9 nM
COc1ccc(C2(C)C(=O)Nc3cc(Cl)cc(Cl)c3C2=O)cc1 (centres undefined)	Ki	147 nM
CNc1nn2c(C)ccnc2c1S(=O)(=O)c1ccccc1	Ki	0.24 nM

Let us move to another entry and its Ki.
Qu. Entry CN1CCN(c2nc(N)nc(CSc3ccccc3Cl)n2)CC1 needs its Ki filled in; supply it.
Ans. 126 nM

* * *

// note: log10 Ki values for 5-hydroxytryptamine receptor 6 (Homo sapiens, UniProt P50406) were reported in different studies
Hello, just confirming the data are log10 of Ki with units of µM.

Below, 5 compounds whose answers are already recorded.
Compound	Target	log10 Ki
COc1ccccc1N1CCN(Cc2ccc3oc4ccccc4c(=O)c3c2)CC1.Cl	5-hydroxytryptamine receptor 6 (Homo sapiens, UniProt P50406)	0.77
OC(c1ccc(F)cc1)C1CCN(CCc2ccccc2I)CC1 (stereo unspecified)	5-hydroxytryptamine receptor 6 (Homo sapiens, UniProt P50406)	-0.37
COc1ccc(S(=O)(=O)N2CCc3cc(C)c(C(F)(F)F)cc32)cc1N1CCNCC1	5-hydroxytryptamine receptor 6 (Homo sapiens, UniProt P50406)	-2.40
CCC(Oc1cc(F)ccc1C(F)(F)F)c1nc(N)nc(N2CCN(C)CC2)n1 (stereo unspecified)	5-hydroxytryptamine receptor 6 (Homo sapiens, UniProt P50406)	-1.82
O=S(=O)(NC1CCN(CCOc2cccc3c2CCCC3)C1)c1cc(F)ccc1F (stereo unspecified)	5-hydroxytryptamine receptor 6 (Homo sapiens, UniProt P50406)	-0.81

For each of the compounds below, note its log10 Ki.
1. COc1ccc(S(=O)(=O)N2CC(C(=O)N3CCCNCC3)c3ccccc32)c2ccccc12 (racemic)
2. CC(C)c1ccc(S(=O)(=O)c2n[nH]c3ccc(NC4CCNCC4)cc23)cc1.Cl
3. Cc1ccc(Cc2nc(N)nc(N3CCN(C)CC3)n2)cc1
4. O=S(=O)(c1cncc2ccccc12)N1CCC(CCN2CCN(c3cccc(F)c3)CC2)CC1

Ans.
1: -2.90; 2: -3.00; 3: -1.19; 4: 0.58

For each of the compounds below, note its log10 Ki.
1. CN1CCN(c2cn(S(=O)(=O)c3ccccc3Br)c3ccc(Br)cc23)CC1
2. O=C1c2cccc3cccc(c23)N1CCCCCCN1CCN(c2ccc(Cl)cc2)CC1

Ans.
[-1.99, -0.16]
